Test: qHTS for Inhibitors of Plasmodium falciparum (GB4) proliferation (AID 504315); also: nearly all actives have a fitted effect of over 50% in size
Conditions: P. falciparum GB4 in erythrocytes, SYBR Green DNA, 72 h; series mostly up to 6.7 µM
Results filed as inconclusive are left out. Active and inactive are the calls of the source. Calls follow the shape of the dose curve; as a rule, active = well fitted inhibition curve with a large enough effect; inconclusive = small, poorly fitted or top-dose-only effect, or effect the other way; inactive = flat fitted curve, though single readings scatter.
Permitted responses: 1 (active), 0 (inactive)

# example entries with known answers
C/C=C/C1=Cc2ccccc2C(CC(=O)OC)N1C(=O)OC (configuration not stated)    0
CCN1C(=O)N(C)[C@@H](c2ccccc2)C(C(=O)OC)=C1C    0
C=CCN1C=C2C(=O)C(C)(OC(=O)CCC(=O)OC)C(=O)C(Br)=C2C=C1c1ccc(OC)cc1 (configuration not stated)    0
c1ccc(-c2nc(-c3cccc4ccccc34)c(Nc3ccc4ccccc4c3)o2)cc1    1
COC(=O)C1=C(C(=O)OC)[C@@H]2Nc3ccccc3[C@@]23C[C@@H](C(=O)OC)N(S(=O)(=O)c2cccs2)C3=N1    0

From here, focus on the item given below.
Q: Lab log entry: CCCCC1=CC2=CC(=O)C(C)(OC(=O)CC)C(=O)C2=CN1c1ccc(OC)cc1 (configuration not stated) — outcome as called in the assay?
Result: 0

---

Assay: qHTS assay for small molecule agonists of the antioxidant response element (ARE) signaling pathway (AID 651741); as to activation: % of control where 0% means no effect
Conditions: HepG2 ARE-bla reporter, beta-lactamase FRET ratio, 16 h; series mostly up to 96 µM
Inconclusive results are not listed. Calls of active or inactive are those of the source. Calls follow the shape of the dose curve; as a rule, active = well fitted activation curve with a large enough effect in the signal ratio; inconclusive = small, poorly fitted or top-dose-only effect, or effect the other way, or a change in a side signal; inactive = flat fitted curve, though single readings scatter; the % refers to the signal ratio.
Choose the fitting class; nothing outside y (active), n (inactive) is accepted.

CN=C(N)NCC1CCOC1 (stereo not given)    y
Cl[Si](Cl)(Cl)c1ccccc1    n
CCCCCCC(O)CCCCCCCCCCC(=O)OC (stereo not given)    n
CCCCOC(=O)c1ccccc1    n

Q: Identify the outcome logged in this assay for the compound shown: Nc1cc(Cl)nc(C(=O)O)c1Cl
Result: n

Q: Status in this test for CC(=O)CC(=O)Nc1ccc(C)cc1C ?
Result: n

Q: Hi, sorry to bother you, what did the test record for CCCCC(CC)COC(=O)/C=C\C(=O)OCC(CC)CCCC (stereo not given) ?
Result: y

Q: Any idea what this test logged for CN(C)Cc1cc(CN(C)C)c(O)c(CN(C)C)c1 ?
Result: n

Q: // return assay outcome for CCCC[O][Al]([O]CCCC)[O]CCCC
Result: n

Q: Please share the test call associated with CCCCCCC(C)(C)S .
Result: n

Q: I'd appreciate the recorded outcome for CCCCOCCOCCOCCO from this test.
Result: n

Q: Hi, sorry to bother you, what did the test record for c1cc2ccc3ccc4ccc5cccc6c(c1)c2c3c4c56 ?
Result: y

Q: Recorded test outcome, item O=[N+]([O-])c1ccc(O)cc1C(F)(F)F
Result: y

Q: Called result for CCCCC(CC)COC(=O)c1ccc(C(=O)OCC(CC)CCCC)cc1 (stereo not given)
Result: n

Q: Test call, this compound: c1ccc(OCCOc2ccccc2)cc1
Result: n

Q: # fetch the recorded call for CCCCCc1ccc(N)cc1 here
Result: n

Q: Which result was noted for this compound in the test: CCCCCCCCCCCCCCN(C)C
Result: n

Q: Which outcome was assigned to CCCOC(=O)NCCCN(C)C in this test?
Result: n

Q: What was the test verdict on O=c1n(CCO)c(=O)n(CCO)c(=O)n1CCO ?
Result: y

Q: # fetch the recorded call for C=CC(=O)OCCOCC(CC)(COCCOC(=O)C=C)COCCOC(=O)C=C here
Result: y
